System: Pseudomonas aeruginosa
Test: Antibacterial activity against Pseudomonas aeruginosa 3308 harboring pNF225 carrying nfxB by twofold serial dilution method
Type: functional
quantity-name: log10(MIC) (log10 of the value in µg/mL)
Annotation: log10 of MIC, µg/mL basis.

**Query** Value lookup for log10(MIC); key = NC[C@H]1O[C@H](O[C@H]2[C@H](O)[C@@H](O[C@H]3O[C@H](CO)[C@@H](O)[C@H](N)[C@H]3O)[C@H](N)C[C@@H]2N)[C@H](N)C[C@@H]1O
**Result** -0.60

**Query** And then NCC[C@H](O)C(=O)N[C@@H]1C[C@H](N)[C@@H](O[C@H]2O[C@H](CN)[C@@H](O)[C@H](O)[C@H]2O)[C@H](O)[C@H]1O[C@H]1O[C@H](CO)[C@@H](O)[C@H](N)[C@H]1O , what is it?
**Result** 0.00

**Query** Next up: C[C@@H](O)[C@H]1C(=O)N2C(C(=O)O)=C(SCCNC=N)C[C@H]12 [IMIPENEM ANHYDROUS]
**Result** 0.30

**Query** Also C[C@H]1[C@H](NC(=O)/C(=N\OC(C)(C)C(=O)O)c2csc(N)n2)C(=O)N1S(=O)(=O)O ?
**Result** 0.60

**Query** Please do the same for O=C(N[C@H](CO)[C@H](O)c1ccc([N+](=O)[O-])cc1)C(Cl)Cl as well.
**Result** 1.81

**Query** Please give the result for O=C(O)c1cn(C2CC2)c2cc(N3CCNCC3)c(F)cc2c1=O too.
**Result** -0.92

###

Test system: Pseudomonas aeruginosa
Test: Antibacterial activity against Pseudomonas aeruginosa FK06 by twofold serial dilution method
Assay type: functional
quantity-name: MIC (µg/mL)
Write it as a number; the unit µg/mL goes unstated.

**Query** State the recorded MIC for this entry: NC[C@H]1O[C@H](O[C@H]2[C@H](O)[C@@H](O[C@H]3O[C@H](CO)[C@@H](O)[C@H](N)[C@H]3O)[C@H](N)C[C@@H]2N)[C@H](N)C[C@@H]1O
**Result** 0.25

**Query** Follow-up item: NCC[C@H](O)C(=O)N[C@@H]1C[C@H](N)[C@@H](O[C@H]2O[C@H](CN)[C@@H](O)[C@H](O)[C@H]2O)[C@H](O)[C@H]1O[C@H]1O[C@H](CO)[C@@H](O)[C@H](N)[C@H]1O
**Result** 1

**Query** Please give the result for C[C@H]1[C@H](NC(=O)/C(=N\OC(C)(C)C(=O)O)c2csc(N)n2)C(=O)N1S(=O)(=O)O too.
**Result** 1

###

Test system: Pseudomonas aeruginosa
Test: Antibacterial activity against Pseudomonas aeruginosa FK06 harboring pNF225 carrying nfxB by twofold serial dilution method
Type: functional
For each record, write down the corresponding MIC.
Show the value, then the unit it is measured in.

**Query** Need MIC, item C[C@H]1[C@H](NC(=O)/C(=N\OC(C)(C)C(=O)O)c2csc(N)n2)C(=O)N1S(=O)(=O)O [AZTREONAM]
**Result** 4 µg/mL

**Query** Let us now turn to NCC[C@H](O)C(=O)N[C@@H]1C[C@H](N)[C@@H](O[C@H]2O[C@H](CN)[C@@H](O)[C@H](O)[C@H]2O)[C@H](O)[C@H]1O[C@H]1O[C@H](CO)[C@@H](O)[C@H](N)[C@H]1O [AMIKACIN]
**Result** 1 µg/mL

**Query** Field entry: C[C@@H](O)[C@H]1C(=O)N2C(C(=O)O)=C(SCCNC=N)C[C@H]12 [IMIPENEM ANHYDROUS]
**Result** 2 µg/mL

**Query** For NC[C@H]1O[C@H](O[C@H]2[C@H](O)[C@@H](O[C@H]3O[C@H](CO)[C@@H](O)[C@H](N)[C@H]3O)[C@H](N)C[C@@H]2N)[C@H](N)C[C@@H]1O [TOBRAMYCIN] then?
**Result** 0.25 µg/mL

**Query** Request: O=C(N[C@H](CO)[C@H](O)c1ccc([N+](=O)[O-])cc1)C(Cl)Cl [CHLORAMPHENICOL]
**Result** 64 µg/mL
